Target or system: hTLR8 (Homo sapiens, UniProt Q9NR97)
Sequence (Q9NR97 27-1041): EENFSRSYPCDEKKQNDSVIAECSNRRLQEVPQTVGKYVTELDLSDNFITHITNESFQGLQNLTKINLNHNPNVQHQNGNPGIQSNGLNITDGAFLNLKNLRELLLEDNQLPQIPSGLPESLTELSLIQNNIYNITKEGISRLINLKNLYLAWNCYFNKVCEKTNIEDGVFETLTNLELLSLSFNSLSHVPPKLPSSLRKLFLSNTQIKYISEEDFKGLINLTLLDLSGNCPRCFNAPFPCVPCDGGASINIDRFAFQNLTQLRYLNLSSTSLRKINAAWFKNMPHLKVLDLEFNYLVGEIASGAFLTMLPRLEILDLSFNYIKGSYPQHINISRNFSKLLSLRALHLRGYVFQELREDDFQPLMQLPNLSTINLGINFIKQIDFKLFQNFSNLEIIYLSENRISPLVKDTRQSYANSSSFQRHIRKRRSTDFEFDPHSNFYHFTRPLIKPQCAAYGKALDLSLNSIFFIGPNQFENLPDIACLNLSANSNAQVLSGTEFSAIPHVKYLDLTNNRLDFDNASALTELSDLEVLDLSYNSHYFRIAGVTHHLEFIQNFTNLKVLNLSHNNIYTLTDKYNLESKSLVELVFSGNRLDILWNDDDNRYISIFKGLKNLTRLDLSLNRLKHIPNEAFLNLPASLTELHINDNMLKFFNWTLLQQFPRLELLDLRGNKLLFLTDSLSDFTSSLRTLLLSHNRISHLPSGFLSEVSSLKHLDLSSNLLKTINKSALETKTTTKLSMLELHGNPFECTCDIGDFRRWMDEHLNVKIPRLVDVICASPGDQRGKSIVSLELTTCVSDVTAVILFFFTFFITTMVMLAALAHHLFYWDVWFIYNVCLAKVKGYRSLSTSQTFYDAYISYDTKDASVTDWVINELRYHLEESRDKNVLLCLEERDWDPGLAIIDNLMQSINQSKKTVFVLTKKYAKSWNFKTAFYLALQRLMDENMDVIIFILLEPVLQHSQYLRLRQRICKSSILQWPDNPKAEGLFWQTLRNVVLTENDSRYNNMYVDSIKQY
Test name: Human TLR8 Reporter Assay
Test settings: HEK-Blue hTLR8 cells, 16 hours, normalized to tl8-506 (1 μM) and DMSO
Define the label as 1 when EC50 is strictly less than 3000 nM and as -1 in all remaining cases.

[[record]]
compound = "CCCCCNc1nc(N)nc2cn(Cc3c(OC)cccc3OC)nc12 [Compound 28]"
cat = 1

[[record]]
compound = "CCC[C@@H](CO)Nc1nc(N)nc2cn(Cc3c(OC)cc(CNC)cc3OC)nc12 [Compound 154]"
cat = -1

[[record]]
compound = "COc1cccc(OC)c1Cn1cc2nc(N)nc(NC(C)C)c2n1 [Compound 27]"
cat = -1

[[record]]
compound = "CCCCNc1nc(N)nc2cn(Cc3nc(CNC)oc3C)nc12 [Compound 165]"
cat = -1

[[record]]
compound = "CCCCNc1nc(N)nc2cn(Cc3cccnc3OC)nc12 [Compound 100]"
cat = 1

[[record]]
compound = "CCCCNc1nc(N)nc2cn(Cc3ccc(CN(C)C)o3)nc12 [Compound 186]"
cat = 1

[[record]]
compound = "CCCCNc1nc(N)nc2cn(Cc3c(OC)cc(N)cc3OC)nc12 [Compound 65]"
cat = 1

[[record]]
compound = "CCCCNc1nc(N)nc2cn(Cc3ccon3)nc12 [Compound 117]"
cat = 1

[[record]]
compound = "CCCCNc1nc(N)nc2cn(Cc3ccc(C4CNCCN4)cc3OC)nc12 (stereo not drawn) [Compound 234]"
cat = -1

[[record]]
compound = "CCCCNc1nc(N)nc2cn(Cc3[nH]cnc3C)nc12 [Compound 188]"
cat = -1

[[record]]
compound = "CCCCNc1nc(N)nc2cn(Cc3cc(N4CCN(C(=O)C5CCC(CN6C(=O)C=CC6=O)CC5)CC4)ccc3OC)nc12 (stereo not drawn) [Compound 70]"
cat = 1

[[record]]
compound = "CCCCNc1nc(N)nc2cn(Cc3nocc3C)nc12 [Compound 140]"
cat = 1

[[record]]
compound = "CCCCNc1nc(N)nc2cn(Cc3cc(C)no3)nc12 [Compound 171]"
cat = 1

[[record]]
compound = "CCCCNc1nc(N)nc2cn(Cc3c(OC)ccc(CN4CCNCC4)c3OC)nc12 [Compound 78]"
cat = 1

[[record]]
compound = "CCC[C@@H](CO)Nc1nc(N)nc2cn(Cc3c(OC)cc(CN(C)CCCN)cc3OC)nc12 [Compound 210]"
cat = -1

[[record]]
compound = "CCCCNc1nc(N)nc2cn(Cc3c(OC)cc(CN4CCN(C(=O)C5CCC(CN6C(=O)C=CC6=O)CC5)CC4)cc3OC)nc12 (stereo not drawn) [Compound 74]"
cat = -1

[[record]]
compound = "CCCCNc1nc(N)nc2cn(Cc3cc(C)nn3C)nc12 [Compound 173]"
cat = 1

[[record]]
compound = "CCCCNc1nc(N)nc2cn(Cc3c(OC)cc(CN4CC(N)C4)cc3OC)nc12 [Compound 192]"
cat = 1

[[record]]
compound = "CCCCNc1nc(N)nc2cn(Cc3ccc(CN4CCN(C(=O)C5CCC(CN6C(=O)C=CC6=O)CC5)CC4)cc3OC)nc12 (stereo not drawn) [Compound 69]"
cat = 1

[[record]]
compound = "CCCCNc1nc(N)nc2cn(Cc3c(OC)cc(C(C)N)cc3OC)nc12 (stereo not drawn) [Compound 215]"
cat = 1

[[record]]
compound = "CCCCNc1nc(N)nc2cn(Cc3ccncc3OC)nc12 [Compound 93]"
cat = 1

[[record]]
compound = "CCCCNc1nc(N)nc2cn(Cc3ccc(C4CCCN4)cc3)nc12 (stereo not drawn) [Compound 205]"
cat = 1

[[record]]
compound = "CCCCC(CCO)Nc1nc(N)nc2cn(Cc3ccccc3OC)nc12 (stereo not drawn) [Compound 17]"
cat = -1

[[record]]
compound = "CCCCNc1nc(N)nc2cn(Cc3c(OC)cc(NCCN4C(=O)C=CC4=O)cc3OC)nc12 [Compound 134]"
cat = -1

[[record]]
compound = "CCCC(Nc1nc(N)nc2cn(Cc3c(OC)cccc3OC)nc12)C(F)(F)F (stereo not drawn) [Compound 126]"
cat = -1

[[record]]
compound = "CCCCNc1nc(N)nc2cn(Cc3c(OC)ccc(CCN)c3OC)nc12 [Compound 79]"
cat = 1

[[record]]
compound = "CCC[C@@H](C)Nc1nc(N)nc2cn(Cc3c(OC)cccc3OC)nc12 [Compound 113]"
cat = 1

[[record]]
compound = "COc1cccc(OC)c1Cn1cc2nc(N)nc(NCC(C)O)c2n1 (stereo not drawn) [Compound 48]"
cat = -1

[[record]]
compound = "CCCCNc1nc(N)nc2cn(Cc3ccnn3CC)nc12 [Compound 177]"
cat = 1

[[record]]
compound = "CCCCNc1nc(N)nc2cn(Cc3c(F)cccc3F)nc12 [Compound 41]"
cat = 1

[[record]]
compound = "CCCCNc1nc(N)nc2cn(Cc3c(OC)cc(CNC(=O)C4CCC(CN5C(=O)CC(SC[C@H](N)C(=O)O)C5=O)CC4)cc3OC)nc12 (stereo partly drawn) [Compound 92]"
cat = -1

[[record]]
compound = "CCCCNc1nc(N)nc2cn(Cc3ccccc3OC(F)F)nc12 [Compound 179]"
cat = 1

[[record]]
compound = "CCCCNc1nc(N)nc2cn(Cc3ccc(CC(C)N)cc3OC)nc12 (stereo not drawn) [Compound 178]"
cat = 1

[[record]]
compound = "CCCCNc1nc(N)nc2cn(Cc3cc(CNC)ccc3OC)nc12 [Compound 148]"
cat = 1

[[record]]
compound = "CCC[C@@H](CO)Nc1nc(N)nc2cn(Cc3c(OC)cc(C(C)N)cc3OC)nc12 (stereo partly drawn) [Compound 222]"
cat = 1

